system: SW-620 colon; test: NCI tumour cell line growth inhibition, 48 h
TEST READOUT: GI50

MOL: COc1cc2cc(Oc3cccc(NC(=O)Nc4cc(C(F)(F)F)cc(C(F)(F)F)c4)c3)c(C)nc2cc1OC
MEAS VALUE: 1940 nM
--
MOL: CC[C@H]1OC(=O)[C@H](C)[C@@H](O[C@H]2C[C@@](C)(OC)[C@@H](O)[C@H](C)O2)[C@H](C)[C@@H](O[C@@H]2O[C@H](C)C[C@H](N(C)C)[C@H]2O)[C@](C)(OC)C/C(C)=C2/O[C@@]1(C)C=C2C
MEAS VALUE: 1780 nM
--
MOL: N#Cc1cc(S(=O)(=O)Nc2nc3cc(Cl)ccc3o2)c(SCc2ccccc2)cc1Cl
MEAS VALUE: 11700 nM
--
MOL: COc1ccc(/C=C/C(=O)c2cc3c(N)c(C(=O)Nc4ccc(OC)cc4)sc3nc2C)cc1
MEAS VALUE: 543 nM
--
MOL: CN1CC[C@H](c2c(O)cc(O)c3c(=O)cc(-c4ccccc4Cl)oc23)[C@H](O)C1
MEAS VALUE: 57.2 nM

###

This section presents molecules with their documented TGI values.
test system: SR leukemia; assay: NCI tumour cell line growth inhibition, 48 h
TEST READOUT: TGI

MOLECULE: CCOP(=O)(O)C(Nc1ccc(N=Nc2ccccc2)cc1)c1cccc(C(Nc2ccc(N=Nc3ccccc3)cc2)P(=O)(O)OCC)c1 (stereo unspecified)
TEST READOUT: TGI
MEAS VALUE: > 100 µM
//
MOLECULE: Oc1ccccc1C=Nc1ccc(-c2nc3ccccc3s2)cc1
TEST READOUT: TGI
MEAS VALUE: > 100 µM
//
MOLECULE: C1=CC2CCC1CN2CCC1CNc2ccccc21 (stereo unspecified)
TEST READOUT: TGI
MEAS VALUE: > 100 µM
//
MOLECULE: COc1ccc(C2C3CCc4ccccc4C3=NN2S(=O)(=O)c2cccc(C(=O)O)c2OC)cc1 (stereo unspecified)
TEST READOUT: TGI
MEAS VALUE: > 100 µM
//
MOLECULE: Cc1sc2nc3n(c(=O)c2c1C)N=CN(c1ccc(Cl)cc1)C3
TEST READOUT: TGI
MEAS VALUE: > 100 µM
//
MOLECULE: CCCCCCCCCCCCCCCc1nc(=S)[nH][nH]1
TEST READOUT: TGI
MEAS VALUE: > 100 µM
//
MOLECULE: Cn1c(=O)c2c(nc(N/N=C/c3ccccc3C(=O)O)n2C)n(C)c1=O
TEST READOUT: TGI
MEAS VALUE: > 100 µM
//
MOLECULE: COc1ccc(-c2cc(/C=C/C(=O)c3ccc(N)cc3)[nH]n2)cc1
TEST READOUT: TGI
MEAS VALUE: 6.09 µM
//
MOLECULE: CCOC(=O)CCC(NC(=O)c1ccc(NC(OC)c2nc3cc(C(F)(F)F)ccc3nc2-c2ccccc2)cc1)C(=O)OCC (stereo unspecified)
TEST READOUT: TGI
MEAS VALUE: > 100 µM
//
MOLECULE: CN=c1sc2nc(C#N)c(C#N)nc2n1C
TEST READOUT: TGI
MEAS VALUE: > 79.6 µM
//
MOLECULE: COc1ccc(COCC[C@H](C)OC2OC(CO)C(O)C(O)C2O)cc1 (stereo partly specified)
TEST READOUT: TGI
MEAS VALUE: > 100 µM
//
MOLECULE: COc1cc(NC2CCCCC2O)c2nc(-c3ccc(Cl)cc3)ccc2c1 (stereo unspecified)
TEST READOUT: TGI
MEAS VALUE: 32.8 µM
//
MOLECULE: Cc1nc2ccccc2c(=O)n1/N=C(\N=Nc1cc(Cl)ccc1Cl)c1ccccc1
TEST READOUT: TGI
MEAS VALUE: > 100 µM
//
MOLECULE: CC[C@H]1OC(=O)[C@H](C)[C@@H](O[C@H]2C[C@@](C)(OC)[C@@H](O)[C@H](C)O2)[C@H](C)[C@@H](O[C@@H]2O[C@H](C)C[C@H](N(C)C)[C@H]2O)[C@](C)(OC)C/C(C)=C2/O[C@@]1(C)C=C2C
TEST READOUT: TGI
MEAS VALUE: 5.09 µM
//
MOLECULE: CC(Oc1ccccc1Cl)C(=O)NN1C(=O)CC(=O)N(c2ccc(Cl)cc2)C1=S (stereo unspecified)
TEST READOUT: TGI
MEAS VALUE: 54.4 µM
//
MOLECULE: Cc1nn(C(=O)c2ccncc2)c2c1C(c1ccccc1[N+](=O)[O-])SC(N)=N2 (stereo unspecified)
TEST READOUT: TGI
MEAS VALUE: > 10 µM
